# system: hGLP-1R (Homo sapiens, UniProt P43220)
# Sequence (P43220 24-463): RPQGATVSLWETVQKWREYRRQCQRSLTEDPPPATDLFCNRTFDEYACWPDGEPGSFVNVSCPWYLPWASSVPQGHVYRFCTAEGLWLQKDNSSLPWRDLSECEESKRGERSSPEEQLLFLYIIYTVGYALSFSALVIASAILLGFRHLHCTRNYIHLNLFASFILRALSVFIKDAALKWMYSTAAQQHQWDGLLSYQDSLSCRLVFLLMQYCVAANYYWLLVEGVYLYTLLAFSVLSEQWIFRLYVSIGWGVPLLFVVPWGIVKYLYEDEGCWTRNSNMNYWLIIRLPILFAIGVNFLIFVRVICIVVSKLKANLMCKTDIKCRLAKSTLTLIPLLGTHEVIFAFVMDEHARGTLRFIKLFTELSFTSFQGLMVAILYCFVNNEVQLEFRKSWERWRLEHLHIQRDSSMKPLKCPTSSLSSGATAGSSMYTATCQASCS
# test_details: cell-based or functional assay
Starred links: 1 amine or outer side, 2 acyl side, 3 side chain; linkers in the order of their positions; H or OH if unused. Non-standard residues stand in square brackets, D forms with d. Groups on a side chain read outwards from the residue. No end group written: not given here. *: point of attachment. C20 diacid = O=C(O)CCCCCCCCCCCCCCCCCCC(=O)*; αMePhe(2-F) = C[C@](N)(Cc1ccccc1F)C(=O)O; γGlu = O=C(O)[C@H](CCC(=O)[*:2])N[*:1]; AEEA = NCCOCCOCC(=O)O; Aib = CC(C)(N)C(=O)O
quantity_name: cAMP Rel EC50 (in the presence of 1% HSA)
State the result as a value with its unit after it.

Solved cases (5 shown):
{"columns": ["binder", "measured_result"],
 "data": [
  ["YXQGTFTSDFSKXLDKKAQXAFIEYLLAGGPSSGAPPPSEG (synthetic construct; SITE 2: note = 2-Aminoisobutyric Acid; SITE 13: note = alpha-methyl-leucine; SITE 17: note = Lysine is chemically modified through conjugation of the epsilon-amino group of the Lysine side chain with (2-[2-(2-Amino-ethoxy)-ethoxy]-acetyl)-(gamma-Glu)-CO-(CH2) 18-CO2H; SITE 20: n) [Example 10]", "375 nM"],
  ["YXQGTFTSDXXQXLDXKAQXQFIEXLIEXGPSSGAPPPSGGGE (not fully specified; non-natural residues; γGlu-C18 diacid on Lys; C-terminal amide; synthetic construct; SITE 2: note = 2-Aminoisobutyric Acid; SITE 10: note = 3-(4-Pyridyl)-L-alanine; SITE 11: note = alpha-methyl-L-serine; SITE 13: note = alpha-methyl-leucine; SITE 16: note = L-ornithine; SITE 17: note = Lysine is chemically modified through conjugation of the epsilon-amino group) [Example 1187]", "154 nM"],
  ["YXQGTFTSDFSXXLDKKAQXAFIEYLLEAGPSSGHPPPSGS (non-natural residues (Aib, Orn, αMeL); lipidated Lys; C-terminal amide; synthetic construct; SITE 2: note = 2-Aminoisobutyric Acid; SITE 12: note = L-ornithine; SITE 13: note = alpha-methyl-leucine; SITE 17: note = Lysine is chemically modified through conjugation of the epsilon-amino group of the Lysine side chain with (2-[2-(2-Amino-ethoxy)-ethoxy]-acetyl)2-(gamma-Glu)) [Example 253]", "355 nM"],
  ["Y[Aib]QGT[αMePhe(2-F)]TSDYSILLDKIAAK([AEEA-γGlu-C20 diacid])AFIEYLIEGGPSSGEPPPSEG-NH2 [Example 296]", "171 nM"],
  ["YXQGTXTSDXSIXLDXKAQXEFIEXLLEGGPSSGAPPPSGS (non-natural residues; AEEA-γGlu-C18 diacid on Lys; C-terminal amide; synthetic construct; SITE 2: note = 2-Aminoisobutyric Acid; SITE 6: note = alpha-methyl-2-fluoro-L-phenylalanine; SITE 10: note = 3-(4-Pyridyl)-L-alanine; SITE 13: note = alpha-methyl-leucine; SITE 16: note = L-ornithine; SITE 17: note = Lysine is chemically modified through conjugation of the epsil) [Example 641]", "68.3 nM"]
]}

If you can, please state the reported cAMP Rel EC50 (in the presence of 1% HSA) value of YXQGTXTSDXSIXLDXKAQXEFIEXLLEGGPSSGAPPPSGE (non-natural residues, C-terminal amide, acylated Lys with fatty diacid; synthetic construct; SITE 2: note = 2-Aminoisobutyric Acid; SITE 6: note = alpha-methyl-2-fluoro-L-phenylalanine; SITE 10: note = 3-(4-Pyridyl)-L-alanine; SITE 13: note = alpha-methyl-leucine; SITE 16: note = L-ornithine; SITE 17: note = Lysine is chemically modified through conjugation of the epsil) [Example 613] . 81.6 nM
